Test system: Mus musculus
Assay: Muscle relaxant activity in albino mouse at 3 mg/kg, ip after 45 mins by traction test
Assay type: functional
Set-up: scale not given: the % may be the effect or the level left
Conditions: route intraperitoneal
quantity: Activity (%)
Kindly provide the numeric value in % only, without the unit symbol.

Q: Record request: Activity value, item CCCCCCCCCCCCCC1=NCC(c2ccc(Cl)cc2)CC(=O)O1 (stereo not given)
A: 40

Q: Record request: Activity value, item CC1=NCC(c2ccc(Cl)cc2)CC(=O)O1 (stereo not given)
A: 100

Q: Record request: Activity value, item C=CCCCCCCCCC1=NCC(c2ccc(Cl)cc2)CC(=O)O1 (stereo not given)
A: 50

Q: Record request: Activity value, item CCCCCCCC/C=C/CCCCCCCC1=NCC(c2ccc(Cl)cc2)CC(=O)O1 (stereo not given)
A: 35

Q: Record request: Activity value, item CCCCCCCC1=NCC(c2ccc(Cl)cc2)CC(=O)O1 (stereo not given)
A: 100

---

Tested on: Mus musculus
Test: Muscle relaxant activity in albino mouse at 3 mg/kg, ip after 30 mins by traction test
Assay type: functional
Set-up: scale not given: the % may be the effect or the level left
Details: route intraperitoneal
Tag: yes if measured Activity is not below 60%, no if it is.

CCCCCCCC1=NCC(c2ccc(Cl)cc2)CC(=O)O1 (stereo not given); yes
CCCCCCCCC1=NCC(c2ccc(Cl)cc2)CC(=O)O1 (stereo not given); yes
CCCCCCCCCCCC1=NCC(c2ccc(Cl)cc2)CC(=O)O1 (stereo not given); no
C=CCCCCCCCCC1=NCC(c2ccc(Cl)cc2)CC(=O)O1 (stereo not given); no
CCCCCCCC/C=C/CCCCCCCC1=NCC(c2ccc(Cl)cc2)CC(=O)O1 (stereo not given); no
CC1=NCC(c2ccc(Cl)cc2)CC(=O)O1 (stereo not given); yes
CCCCCCCCCCCCCC1=NCC(c2ccc(Cl)cc2)CC(=O)O1 (stereo not given); no
CCCCCCCCCCC1=NCC(c2ccc(Cl)cc2)CC(=O)O1 (stereo not given); yes
O=C1CC(c2ccc(Cl)cc2)CN=C(Cc2ccccc2)O1 (stereo not given); no

# ---- query compound ----
Q: Check this compound for Activity at or above 60%: NCC(CC(=O)O)c1ccc(Cl)cc1 (stereo not given)
A: no

---

System: Mus musculus
Test: Neuropharmacological effect in albino mouse assessed as spontaneous locomotor activity at 3 mg/kg, ip after 45 mins
Format: functional
Settings: route intraperitoneal
Each entry below carries its reported Activity.
Kindly provide the numeric value in m only, without the unit symbol.

O=C1CC(c2ccc(Cl)cc2)CN=C(Cc2ccccc2)O1 (stereo not given); 0

Next compound, Activity to be filled in.
Q: Record request: Activity value, item CCCCCCCCCCCC1=NCC(c2ccc(Cl)cc2)CC(=O)O1 (stereo not given)
A: 16.21

---

Test system: Mus musculus
Experiment: Decrease in cognitive impairment in albino mouse assessed as retention latency at 3 mg/kg, ip after 90 mins by passive avoidance reflex test
Type: functional
Details: route intraperitoneal
Each entry below carries its reported Activity.
Kindly provide the numeric value in s only, without the unit symbol.

Some compounds with known Activity results, for comparison:
CCCCCCCCC1=NCC(c2ccc(Cl)cc2)CC(=O)O1 (stereo unspecified); 164.56
CCCCCCCCCCCCCC1=NCC(c2ccc(Cl)cc2)CC(=O)O1 (stereo unspecified); 67.56
CCCCCCCC/C=C/CCCCCCCC1=NCC(c2ccc(Cl)cc2)CC(=O)O1 (stereo unspecified); 68.44
NCC(CC(=O)O)c1ccc(Cl)cc1 (stereo unspecified); 128.56
CCCCCCCC1=NCC(c2ccc(Cl)cc2)CC(=O)O1 (stereo unspecified); 164.56

Q: Record request: Activity value, item CC1=NCC(c2ccc(Cl)cc2)CC(=O)O1 (stereo unspecified)
A: 164.56

Provenance of the data: ChEMBL document CHEMBL1139401
